Where do the numbers come from? From paper PMC3154423.

assayed-target: Jun bZIP R272A;Fos bZIP R146A (human;human, UniProt P05412;P01100 252-315;137-200, R272A|R146A)
Sequence (P05412 252-315 R272A, chain 1 of 2): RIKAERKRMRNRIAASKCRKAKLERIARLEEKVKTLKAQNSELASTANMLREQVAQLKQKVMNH
Sequence (P01100 137-200 R146A, chain 2 of 2): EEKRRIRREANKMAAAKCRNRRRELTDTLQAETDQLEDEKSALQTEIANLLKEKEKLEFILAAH
experiment-summary: ITC
measured-property: pKd
Please note pKd is a logarithmic value: minus log10 of concentration in mol/L. Answer with that number alone.

## Task Item TRE duplex 15-mer (dsDNA) DNA 1: CGCGTGACTCACCCC DNA 2: GGGGTGAGTCACGCG : provide pKd
## Result 6.12
